molecular target: GPR40 (Homo sapiens); construct: expressed in transfected cells; host or cells: CHO-K1; test: GPR40 agonist activity, FLIPR calcium assay in CHO-K1/GPR40 cells; format: cell-based; settings: GPR40 agonist activity range (EC50), CHO-K1/GPR40 cells; read-out: GPR40 activity
Sequence (O14842 whole entry): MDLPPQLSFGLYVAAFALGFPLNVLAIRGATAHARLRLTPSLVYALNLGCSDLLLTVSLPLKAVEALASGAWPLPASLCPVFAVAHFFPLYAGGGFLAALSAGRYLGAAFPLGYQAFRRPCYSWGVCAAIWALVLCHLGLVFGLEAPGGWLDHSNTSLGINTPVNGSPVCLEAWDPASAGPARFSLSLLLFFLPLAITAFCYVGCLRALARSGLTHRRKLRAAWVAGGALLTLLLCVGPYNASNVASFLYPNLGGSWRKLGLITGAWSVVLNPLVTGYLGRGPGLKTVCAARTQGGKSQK
Entries and their EC50 values follow.

See these solved cases before continuing.
O=C(O)C(F)C1COc2cc(OCc3cccc4c3OC(F)(F)O4)ccc21 (centres unmarked)    10 to 100 nM
O=C(O)CC1COc2cc(OCc3cc(F)cc4c3OCO4)ccc21 (centres unmarked)    10 to 100 nM
O=C(O)CC1COc2cc(OCc3ccc(Br)c4c3OCO4)ccc21 (centres unmarked)    > 100 nM
CN(C)c1cc(COc2ccc3c(c2)OC[C@H]3CC(=O)O)c2c(c1)OCO2    > 100 nM
O=C(O)CC1CCc2cc(OCc3cc(F)cc4c3OCO4)ccc21 (centres unmarked)    10 to 100 nM

stdin: # get_value(readout='EC50', item= O=C(O)C[C@@H]1COc2cc(OCc3cc(F)cc4c3OC(F)(F)O4)ccc21 )
stdout: 10 to 100 nM

stdin: Please answer likewise for CC(C)(C)NC(=O)Nc1cc(COc2ccc3c(c2)OC[C@H]3CC(=O)O)c2c(c1)OCO2
stdout: > 100 nM

stdin: Cool, now COC(=O)Nc1cc(COc2ccc3c(c2)OC[C@H]3CC(=O)O)c2c(c1)OCO2
stdout: > 100 nM

stdin: For O=C(O)CC1COc2cc(OCc3cc(Cl)cc4c3OCCO4)ccc21 (centres unmarked) then?
stdout: > 100 nM

stdin: Further, for O=C(O)C(Br)C1COc2cc(OCc3cccc4c3OC(F)(F)O4)ccc21 (centres unmarked) ?
stdout: > 100 nM

stdin: Would you kindly repeat that for O=C(O)CC1COc2cc(OCc3cccc4c3OC(F)(F)O4)c(Cl)cc21 (centres unmarked) ?
stdout: > 100 nM

stdin: Same thing, different compound: O=C(O)C[C@@H]1COc2cc(OCc3cc(Cl)cc4c3OC(F)(F)O4)ccc21
stdout: 10 to 100 nM

stdin: Similarly, O=C(O)CC1COc2cc(OCc3cc(F)cc4c3OCCO4)ccc21 (centres unmarked) ?
stdout: > 100 nM

stdin: Now this one: N#Cc1cc(COc2ccc3c(c2)OCC3CC(=O)O)c2c(c1)OCO2 (centres unmarked)
stdout: 10 to 100 nM

stdin: Thanks! And O=C(O)C(O)C1COc2cc(OCc3cccc4c3OC(F)(F)O4)ccc21 (centres unmarked) ?
stdout: > 100 nM

stdin: Check CC1(C)Oc2cccc(COc3ccc4c(c3)OCC4CC(=O)O)c2O1 (centres unmarked) too.
stdout: 10 to 100 nM
